Test: Selectivity index, ratio of IC50 for ovine COX1 to IC50 for human recombinant COX2
Measurement Label: Ratio IC50

Use the examples below as a reference point.
CC/C(=C(\c1ccccc1)c1ccc(OC)cc1)c1ccc(S(C)(=O)=O)cc1 > 9.3
CCC(=C(c1ccccc1)c1ccccc1)c1ccc(S(C)(=O)=O)cc1 26.3
CCCCC(=C(c1ccccc1)c1ccccc1)c1ccc(S(C)(=O)=O)cc1 3.4
CCCC/C(=C(\c1ccccc1)c1ccc(OC)cc1)c1ccc(S(C)(=O)=O)cc1 > 13
CCCC/C(=C(\c1ccccc1)c1ccc(OCCF)cc1)c1ccc(S(C)(=O)=O)cc1 > 4.5

Which Ratio IC50 is listed for CCCC/C(=C(\c1ccccc1)c1ccc(O)cc1)c1ccc(S(C)(=O)=O)cc1 ?
> 8.5

# credit: ChEMBL document CHEMBL1221239
